Tested on: SF-539
Test: NCI tumour cell line growth inhibition, 48 h
The source made the active and inactive calls. Rule as the data show it: active = GI50 up to about 1.1 µM and inactive = higher.
parameter measured: GI50

{"compound": "CC1(C)C(=O)C2(OS(=O)(=O)C(F)(F)F)CCC1C2 (configuration not stated)", "tested system": "SF-539", "GI50": "> 100 µM (inactive)"}
{"compound": "Cc1cc([N+](=O)[O-])c(C)c(Br)c1C", "tested system": "SF-539", "GI50": "> 100 µM (inactive)"}

What does the data say about its GI50? Entry: Cc1ccc(C2COc3cc(O)c(O)cc3C2)cc1 (configuration not stated)
22.4 µM (inactive)

What does the data say about its GI50? Entry: `COc1ccc(Cc2n[nH]c(Nc3ccc(Br)cc3)nc2=O)cc1OC`
> 100 µM (inactive)

What does the data say about its GI50? Entry: `CNC(=O)CN(CC(N)=O)C(N)=O`
> 100 µM (inactive)
